Would you kindly list Kd for each of these binders?
tgt: T1, Clostridium difficile toxin A, soluble full-length (TechLab) (Clostridium difficile, UniProt P16154 1-2710)
T1 construct: also called tcdA
assay: SPR Biacore T200, 37C, mAb capture
Give bare numbers, in pM.

Example results:
binder: H1H3324P (antibody, V domains shown) VH: EVQLVESGGGLVQPGGSLRLSCAASGFTFSSYDMHWVRQVIGKGLEWVSAIGTVGDTYYAGSVKGRFTISRENAKNSLYLQMNSLRAGDTAVYYCARDRGGANIYSFYYGMDVWGQGTTVTVSS VL: DIQMTQSPSSLSVSVGDRVTITCRASQDISNYLAWYQQKPGKVPKLLIYAASTLQSGVPSRFSGSGSGTDFTLTISSLQPEDVATYFCQKYNSAPFTFGPGTKVDIKR
numeric.value: 13.9
//
binder: H1H3330P (antibody, V domains shown) VH: QVQLVESGGGVVQPGGSLRLSCAASGFTFSSYAMHWVRQAPGKGLEWVAIIWFDGSNEDYADSVKGRFTISRDNSKNMVYLQINSLRAEDTAVYYCARSANWNYEGGPLFDYWGQGTLVTVSS VL: DIQMTQSPSSLSASVGDRVTITCRASQTISTFLNWYQQKPGKGPELLIYTASSLQSGVPSRFSGSGSGTDFALTISSLQPEDFATYYCQQNYNDPPTFGQGTRLEIKR
numeric.value: 547

Hey, can you go through the list below and give me Kd for every item?
1. Control I (anti-toxin A antibody with the variable domains of the "3D8" antibody of U.S. Pat. No. 7,625,559 and US2005/0287150) (antibody, human IgG1, kappa, V domains shown, also called control 1; Control Antibody I) VH: QVQLVESGGGVVQPGRSLRLSCAASGFSFSNYGMHWVRQAPGKGLEWVALIWYDGSNEDYTDSVKGRFTISRDNSKNTLYLQMNSLRAEDTAVYYCARWGMVRGVIDVFDIWGQGTVVTVSS VL: DIQMTQSPSSVSASVGDRVTITCRASQGISSWLAWYQHKPGKAPKLLIYAASSLQSGVPSRFSGSGSGTDFTLTISSLQPEDFATYYCQQANSFPWTFGQGTKVEIKR
2. H1H3328P (antibody, V domains shown) VH: EVQLVESGGGLVQPGGSLTLSCAASRFTFSNYDMHWVRQATGKGLEWVSAIGTVGDTYYAGSVKGRFTISRDDAKNSLYLQMNSLRAGDTAVYYCARDRGGAGTYSFYYGMDVWGQGTTVTVSS VL: DIQMTQSPSSLSASVGDRVTITCRASQDISNYLAWYQQKPGKVPKLLIYAASTLQSGVPSRFSGSGSGTDFTLTVSSLQPEDVATYYCQKYTSAPFTFGPGTKVDIKR
3. H1H3117N (antibody, V domains shown) VH: EVQLLESGGGLAQPGGSLRLSCAASGFNFGTHDMSWVRQAPGKGLEWVSGLTSTGGSASSADSVKGRFTISRDNSKNILYLQMNSLRAEDTAVYYCAKTFNWNSYFDYWGQGTLVTVSS VL: EIVLTQSPGTLSLSPGERATLSCRASQSISTYYLAWYQQKPDQPPRLLIYGTSSRATGIPDRFSGSGSGTDFTLTISRLDPEDFAVYYCQQYGNSLYTFGQGTKLEIK
4. H1H3350P (antibody, V domains shown) VH: QVQLVESGGGLVKPGGSLTLSCVASGFTFTDYYISWIRQAPGKGLEWISYIGTGGAAKYYADSVKGRFTVSRDNAKNSLYLLMNNLRAEDTAVYYCARDLGIFDLWGQGTLVTVSS VL: EIVMTQSPATLSVSPGERATLSCRASQSVSSSLAWYHQKPGQAPRLLIHGVSTRATGIPARFSGTGSGTEFTLTISSLQSEDFAVYYCQQYHNWPPYTFGQGTKLEIKR

85.9
95.7
79.3
10.1
